Exercise: for every item that follows, state its recorded protein stability index.
B1: SMG5 (parent)
chain: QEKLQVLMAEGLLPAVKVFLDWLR

# Variants of: B1
# assay-procedure: protein stability index of a GFP-peptide fusion (GPS, HEK-293T) (PSI 1-6); higher = more stable;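 further: lentivirally expressed fusions sorted by FACS into six bins by GFP to DsRed ratio, PSI derived from sequencing read proportions per bin multiplied by bin number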
# measurement-conditions: c terminus: a fixed tail appended
Give bare numbers.

Illustrative cases are given below, each with its answer.
In [3]: df
Out[3]:
   variant_key  recorded_value
0         A15F            2.42
1         A15C            2.72
2          V6R            1.99
3         D21M            2.04
4         L13N            1.99
5         V18G            3.13

For each of the variants below, state protein stability index.
1. E2C
2. E10V
3. V16E
4. A15P
5. F19Q
6. A9M
7. M8N

[2.47, 1.76, 2.15, 1.86, 2.13, 1.81, 2.57]
